test system: M. tuberculosis; format: cell-based, Mycobacterium tuberculosis (laboratory strain H37Rv); conditions: peptide 10 µg/mL; MGIT; diluted inoculum; technical repeat 2a; TB control (no peptide) 15.01
Where no end group is shown, it is not given here.
Value kind: Time to Positivity (Days.Hours) Experiment 2a

>>> quantitative_readout("RLARIVVIRWAR-CONH2 (RLARIVVIRWAR-NH2) [Peptide 72]")
15.01
>>> quantitative_readout("77: peptide from the authors' library (VRLRIRVAVIRA) [Peptide 77]")
14.22
>>> quantitative_readout("76: peptide from the authors' library (VRWRIRVAVIRA) [Peptide 76]")
16.08
>>> quantitative_readout("71: peptide from the authors' library (RLWRIVVIRVKR) [Peptide 71]")
14.01
>>> quantitative_readout("12: peptide from the authors' library (RRRIKIRWY) [Peptide 12]")
14.08
>>> quantitative_readout("29: peptide from the authors' library (RWRWWWRVY) [Peptide 29]")
15.12
>>> quantitative_readout("63: peptide from the authors' library; same sequence as Indolicidin/Cow (ILPWKWPWWPWRR) [Peptide 63]")
17.01
>>> quantitative_readout("16: peptide from the authors' library (RLKRWWKFL) [Peptide 16]")
14.17

###

tested on: M. tuberculosis; assay type: cell-based, Mycobacterium tuberculosis (laboratory strain H37Rv); details: peptide 10 µg/mL; MGIT; less diluted inoculum; technical repeat 1b; TB control (no peptide) 7.01
Where no end group is shown, it is not given here.
Value kind: Time to Positivity (Days.Hours) Experiment 1b

>>> result("20: peptide from the authors' library (KWKWWWRKI) [Peptide 20]")
"6.00 Days.Hours"
>>> result("59: peptide from the authors' library (ILKWKRKWWKWRR) [Peptide 59]")
"5.22 Days.Hours"
>>> result("67: peptide from the authors' library (RLWRIVVIRVAR) [Peptide 67]")
"6.11 Days.Hours"
>>> result("12: peptide from the authors' library (RRRIKIRWY) [Peptide 12]")
"5.20 Days.Hours"
>>> result("RRWRIVVIRVRR-CONH2 (RRWRIVVIRVRR-NH2) [Peptide 69]")
"6.02 Days.Hours"
>>> result("LLGDFFRKSKEKIGKEFKRIVQRIKDFLRNLVPRTES [Peptide 78, reference compound]")
"6.09 Days.Hours"
>>> result("77: peptide from the authors' library (VRLRIRVAVIRA) [Peptide 77]")
"6.04 Days.Hours"
>>> result("62: peptide from the authors' library (ILKWKMFKWKWFR) [Peptide 62]")
"7.02 Days.Hours"
>>> result("76: peptide from the authors' library (VRWRIRVAVIRA) [Peptide 76]")
"6.16 Days.Hours"
>>> result("63: peptide from the authors' library; same sequence as Indolicidin/Cow (ILPWKWPWWPWRR) [Peptide 63]")
"6.22 Days.Hours"

###

tested on: M. tuberculosis; format: cell-based, Mycobacterium tuberculosis (laboratory strain H37Rv); details: peptide 10 µg/mL; MGIT; less diluted inoculum; technical repeat 1b; TB control (no peptide) 7.01
Where no end group is shown, it is not given here.
Mark yes only for Time to Positivity (Days.Hours) Experiment 1b values smaller than 6 Days.Hours; exact matches and larger values are no.

>>> label_value("16: peptide from the authors' library (RLKRWWKFL) [Peptide 16]")
"yes"
>>> label_value("61: peptide from the authors' library (ILKWKTKWWKWFR) [Peptide 61]")
"yes"
>>> label_value("RLARIVVIRVRR-CONH2 (RLARIVVIRVRR-NH2) [Peptide 70]")
"no"
>>> label_value("RLARIVVIRWAR-CONH2 (RLARIVVIRWAR-NH2) [Peptide 72]")
"no"

###

tested on: M. tuberculosis; type: cell-based, Mycobacterium tuberculosis (laboratory strain H37Rv); conditions: peptide 10 µg/mL; MGIT; less diluted inoculum; technical repeat 1a; TB control (no peptide) 7.02
Where no end group is shown, it is not given here.
Measured Time to Positivity (Days.Hours) Experiment 1a accompanies every entry in the list below.
Value kind: Time to Positivity (Days.Hours) Experiment 1a

>>> quantitative_readout("71: peptide from the authors' library (RLWRIVVIRVKR) [Peptide 71]")
6.04
>>> quantitative_readout("62: peptide from the authors' library (ILKWKMFKWKWFR) [Peptide 62]")
6.07
>>> quantitative_readout("12: peptide from the authors' library (RRRIKIRWY) [Peptide 12]")
6.14
>>> quantitative_readout("WKIVFWWRR-NH2 [Peptide 14]")
6.01

###

system: M. tuberculosis; type: cell-based, Mycobacterium tuberculosis (laboratory strain H37Rv); settings: peptide 10 µg/mL; MGIT; less diluted inoculum; technical repeat 1b; TB control (no peptide) 7.01
Where no end group is shown, it is not given here.
Measured Time to Positivity (Days.Hours) Experiment 1b accompanies every entry in the list below.
Value kind: Time to Positivity (Days.Hours) Experiment 1b

>>> quantitative_readout("3: peptide from the authors' library (WKWRVRVTI) [Peptide 3]")
6.17
>>> quantitative_readout("71: peptide from the authors' library (RLWRIVVIRVKR) [Peptide 71]")
6.06
>>> quantitative_readout("49: peptide from the authors' library (VRLRIRVRVIRK) [Peptide 49]")
6.06
>>> quantitative_readout("5: peptide from the authors' library; same sequence as P8/Designed * (FFIYVWRRR) [Peptide 5]")
6.08
>>> quantitative_readout("64: peptide from the authors' library (RLARIVVIRVAR) [Peptide 64]")
6.16
>>> quantitative_readout("68: peptide from the authors' library (RLRRIVVIRVAR) [Peptide 68]")
6.17
>>> quantitative_readout("9: peptide from the authors' library; same sequence as P9/Designed (KRRWRIWLV) [Peptide 9]")
6.04
>>> quantitative_readout("60: peptide from the authors' library (ILKWKIFKWKWFR) [Peptide 60]")
6.02
>>> quantitative_readout("65: peptide from the authors' library (RGARIVVIRVAR) [Peptide 65]")
6.03
>>> quantitative_readout("22: peptide from the authors' library (IRMRIRVLL) [Peptide 22]")
6.07
>>> quantitative_readout("WKIVFWWRR-NH2 [Peptide 14]")
6.12
>>> quantitative_readout("66: peptide from the authors' library (RRARIVVIRVAR) [Peptide 66]")
6.16
>>> quantitative_readout("29: peptide from the authors' library (RWRWWWRVY) [Peptide 29]")
6.00
